The following compounds are shown together with reported zone of inhibition at 100 µg/mL values.
Test system: Candida albicans
ASSAY PROCEDURE: Antimicrobial activity against Candida albicans at 100 ug/ml by paper disc method
Assay type: functional
CONDITION CONTEXT: read-out: IZ

{"MOL": "COc1ccc(-c2nc(SC)n(C)c(=O)c2C#N)cc1", "zone of inhibition at 100 µg/mL [mm]": 19.8}
{"MOL": "CCOC(=O)c1cnn(-c2nc(-c3ccccc3O)c(C#N)c(=O)n2C)c1N", "zone of inhibition at 100 µg/mL [mm]": 15.5}
{"MOL": "CSc1nc(-c2ccc(Cl)cc2)c(C#N)c(=O)n1C", "zone of inhibition at 100 µg/mL [mm]": 18.4}
{"MOL": "CCOC(=O)c1cnn(-c2nc(-c3cccc(O)c3O)c(C#N)c(=O)n2C)c1N", "zone of inhibition at 100 µg/mL [mm]": 17.7}
{"MOL": "CCOC(=O)c1cnn(-c2nc(-c3ccco3)c(C#N)c(=O)n2C)c1N", "zone of inhibition at 100 µg/mL [mm]": 18}
{"MOL": "Cn1c(NN)nc(-c2ccc(Cl)cc2)c(C#N)c1=O", "zone of inhibition at 100 µg/mL [mm]": 17.3}
{"MOL": "Cn1c(NN)nc(-c2ccccc2F)c(C#N)c1=O", "zone of inhibition at 100 µg/mL [mm]": 19.2}
{"MOL": "CCOC(=O)c1cnn(-c2nc(-c3ccc(N(C)C)cc3)c(C#N)c(=O)n2C)c1N", "zone of inhibition at 100 µg/mL [mm]": 17.7}
{"MOL": "CCOC(=O)c1cnn(-c2nc(-c3cccc(OC)c3OC)c(C#N)c(=O)n2C)c1N", "zone of inhibition at 100 µg/mL [mm]": 17}
{"MOL": "CCOC(=O)c1cnn(-c2nc(-c3ccccc3F)c(C#N)c(=O)n2C)c1N", "zone of inhibition at 100 µg/mL [mm]": 21.2}
{"MOL": "CCOC(=O)c1cnn(-c2nc(-c3ccccc3Cl)c(C#N)c(=O)n2C)c1N", "zone of inhibition at 100 µg/mL [mm]": 20.2}
{"MOL": "CSc1nc(-c2ccccc2Cl)c(C#N)c(=O)n1C", "zone of inhibition at 100 µg/mL [mm]": 20.8}
{"MOL": "Cn1c(NN)nc(-c2cccs2)c(C#N)c1=O", "zone of inhibition at 100 µg/mL [mm]": 15.9}
{"MOL": "Cn1c(NN)nc(-c2cccc(O)c2O)c(C#N)c1=O", "zone of inhibition at 100 µg/mL [mm]": 18.7}
{"MOL": "COc1cccc(-c2nc(NN)n(C)c(=O)c2C#N)c1OC", "zone of inhibition at 100 µg/mL [mm]": 17.9}
{"MOL": "CSc1nc(-c2ccccc2F)c(C#N)c(=O)n1C", "zone of inhibition at 100 µg/mL [mm]": 16}
{"MOL": "CCOC(=O)c1cnn(-c2nc(-c3ccc(Cl)cc3)c(C#N)c(=O)n2C)c1N", "zone of inhibition at 100 µg/mL [mm]": 21.8}
